Measured values drawn from patent US20260184697A1 for this set.

# target-under-test: EZH2/SUZ/EED (Homo sapiens, UniProt O75530+Q15022+Q15910)
# Sequence (Q15910 2-746 limits assumed): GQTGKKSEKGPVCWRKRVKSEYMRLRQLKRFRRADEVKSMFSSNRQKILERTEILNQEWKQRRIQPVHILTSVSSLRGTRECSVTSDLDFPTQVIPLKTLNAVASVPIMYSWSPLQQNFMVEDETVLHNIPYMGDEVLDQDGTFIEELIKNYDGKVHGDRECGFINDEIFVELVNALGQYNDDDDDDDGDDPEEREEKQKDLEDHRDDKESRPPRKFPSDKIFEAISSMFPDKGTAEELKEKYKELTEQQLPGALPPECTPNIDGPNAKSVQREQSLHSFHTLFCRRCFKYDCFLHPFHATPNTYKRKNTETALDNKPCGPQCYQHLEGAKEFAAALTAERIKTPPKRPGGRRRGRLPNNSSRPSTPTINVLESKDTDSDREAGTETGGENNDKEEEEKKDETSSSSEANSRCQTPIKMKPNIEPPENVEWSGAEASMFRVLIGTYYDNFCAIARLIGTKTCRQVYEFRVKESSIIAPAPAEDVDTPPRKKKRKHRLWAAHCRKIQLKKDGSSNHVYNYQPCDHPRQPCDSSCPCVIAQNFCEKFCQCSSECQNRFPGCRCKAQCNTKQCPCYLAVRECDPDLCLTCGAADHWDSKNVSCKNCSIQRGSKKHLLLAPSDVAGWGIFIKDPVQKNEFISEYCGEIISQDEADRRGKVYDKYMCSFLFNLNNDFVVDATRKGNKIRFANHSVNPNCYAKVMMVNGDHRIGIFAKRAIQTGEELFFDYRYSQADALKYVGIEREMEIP
# Sequence (Q15022 2-739 partner limits assumed): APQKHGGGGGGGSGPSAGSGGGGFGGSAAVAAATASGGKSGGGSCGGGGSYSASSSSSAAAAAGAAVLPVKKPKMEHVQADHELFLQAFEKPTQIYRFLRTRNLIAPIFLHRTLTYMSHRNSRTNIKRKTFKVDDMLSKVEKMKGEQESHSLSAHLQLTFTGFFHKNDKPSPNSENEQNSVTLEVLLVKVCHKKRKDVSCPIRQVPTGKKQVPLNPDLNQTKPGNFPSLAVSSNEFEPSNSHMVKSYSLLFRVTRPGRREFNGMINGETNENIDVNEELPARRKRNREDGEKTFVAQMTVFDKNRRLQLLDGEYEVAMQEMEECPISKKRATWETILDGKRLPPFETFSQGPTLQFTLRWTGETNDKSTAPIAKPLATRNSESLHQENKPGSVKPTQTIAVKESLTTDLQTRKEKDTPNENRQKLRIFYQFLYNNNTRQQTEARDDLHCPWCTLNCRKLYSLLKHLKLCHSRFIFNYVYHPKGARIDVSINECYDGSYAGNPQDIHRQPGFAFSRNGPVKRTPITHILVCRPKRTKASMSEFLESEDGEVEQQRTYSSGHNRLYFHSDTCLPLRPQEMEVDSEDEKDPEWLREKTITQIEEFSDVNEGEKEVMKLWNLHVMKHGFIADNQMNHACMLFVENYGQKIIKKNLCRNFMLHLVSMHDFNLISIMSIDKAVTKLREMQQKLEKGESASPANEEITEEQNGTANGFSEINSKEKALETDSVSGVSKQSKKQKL
# Sequence (O75530 2-441 partner limits assumed): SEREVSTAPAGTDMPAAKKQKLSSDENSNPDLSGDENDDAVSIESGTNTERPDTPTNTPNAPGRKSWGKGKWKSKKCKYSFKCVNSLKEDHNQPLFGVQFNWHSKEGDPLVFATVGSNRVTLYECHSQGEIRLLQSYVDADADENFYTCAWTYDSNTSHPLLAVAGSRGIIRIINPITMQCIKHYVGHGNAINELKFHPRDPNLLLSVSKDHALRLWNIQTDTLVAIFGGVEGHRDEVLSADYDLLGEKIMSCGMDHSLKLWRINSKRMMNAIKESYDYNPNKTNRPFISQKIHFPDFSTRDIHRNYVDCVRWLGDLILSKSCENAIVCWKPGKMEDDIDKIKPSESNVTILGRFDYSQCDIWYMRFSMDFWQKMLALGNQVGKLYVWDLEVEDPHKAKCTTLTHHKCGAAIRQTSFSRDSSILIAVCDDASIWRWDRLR
# assay-procedure: Inhibitory effect on EZH2 by the MTase-Glo method (Test Example 1)
# recorded-conditions: EZH2/SUZ/EED 6.25 nM, H3 peptide 10 μM, SAM 3 μM, 30° C. 3 h, read-out: Test Example 1 WT EZH2 IC50
quantity: pIC50
# reply with the number alone; pIC50 is -log10 of concentration in mol/L

Worked cases, pIC50 given:
1. Cc1cc(C)c(CNC(=O)c2cc(Cl)c3c(c2C)O[C@@H](C2CCN(C4COC4)CC2)CO3)c(=O)[nH]1 [Compound 88] ... 7.53
2. COc1cc(C)[nH]c(=O)c1CNC(=O)c1cc(Cl)c2c(c1C)O[C@@H]([C@H]1CC[C@H](N3CC4COCC4C3)CC1)CO2 (stereo partly shown) [Compound 96] ... 8.15
3. COc1cc(C)[nH]c(=O)c1CNC(=O)c1cc(Cl)c2c(c1C)O[C@@H]([C@H]1CC[C@H](N3CC(OCCF)C3)CC1)CO2 [Compound 110] ... 8.57

What reported pIC50 corresponds to COC1CN([C@H]2CC[C@@H]([C@H]3COc4c(C#N)cc(C(=O)NCc5c(SC)cc(C)[nH]c5=O)c(C)c4O3)CC2)C1 [Compound 153] on EZH2/SUZ/EED (Homo sapiens, UniProt O75530+Q15022+Q15910)?
8.49

###

Below: a set of entries, each annotated with reported IC50.
# target-under-test: EZH1/SUZ/EED (Homo sapiens, UniProt O75530+Q15022+Q92800)
# Sequence (Q92800 2-747 limits assumed): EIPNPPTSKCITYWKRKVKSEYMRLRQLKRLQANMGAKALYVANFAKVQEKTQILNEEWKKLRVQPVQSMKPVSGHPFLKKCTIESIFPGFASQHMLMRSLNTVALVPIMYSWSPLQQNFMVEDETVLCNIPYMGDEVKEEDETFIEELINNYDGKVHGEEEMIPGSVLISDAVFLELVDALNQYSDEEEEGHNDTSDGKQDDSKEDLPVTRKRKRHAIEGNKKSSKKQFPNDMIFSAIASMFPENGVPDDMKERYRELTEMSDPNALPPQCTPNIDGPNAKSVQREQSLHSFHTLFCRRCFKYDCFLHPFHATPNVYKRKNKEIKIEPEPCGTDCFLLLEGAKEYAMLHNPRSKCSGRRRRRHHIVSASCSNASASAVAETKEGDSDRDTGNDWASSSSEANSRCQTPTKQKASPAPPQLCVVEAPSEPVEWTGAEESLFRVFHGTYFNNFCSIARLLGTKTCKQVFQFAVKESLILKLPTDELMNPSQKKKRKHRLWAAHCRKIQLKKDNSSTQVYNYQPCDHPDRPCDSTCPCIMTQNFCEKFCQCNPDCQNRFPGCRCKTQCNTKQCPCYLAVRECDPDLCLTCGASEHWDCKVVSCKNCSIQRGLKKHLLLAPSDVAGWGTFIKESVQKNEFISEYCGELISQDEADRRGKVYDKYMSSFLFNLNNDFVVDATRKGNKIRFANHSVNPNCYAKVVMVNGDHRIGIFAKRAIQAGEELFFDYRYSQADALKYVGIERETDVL
# Sequence (Q15022 2-739 partner limits assumed): as the sequence (Q15022 2-739 partner limits assumed) above
# Sequence (O75530 2-441 partner limits assumed): as the sequence (O75530 2-441 partner limits assumed) above
# assay-procedure: Inhibitory effect on EZH1 by the MTase-Glo method (Test Example 1)
# recorded-conditions: EZH1/SUZ/EED 25 nM, H3 peptide 10 μM, SAM 3 μM, 30° C. 3 h, read-out: Test Example 1 WT EZH1 IC50
Remember to put the unit after the number in your answer.

Worked cases, IC50 given:
1) COc1cc(C)[nH]c(=O)c1CNC(=O)c1cc(Cl)c2c(c1Cl)O[C@@H]([C@H]1CC[C@H](N3CC(OC)C3)CC1)CO2 ... 126 nM
2) CSc1cc(C)[nH]c(=O)c1CNC(=O)c1cc(Cl)c2c(c1C)O[C@@H]([C@H]1CC[C@H](N3CCC3)CC1)CO2 ... 9.4 nM
3) Cc1cc(C)c(CNC(=O)c2c(C)c3c(c(Cl)c2F)OC[C@H]([C@H]2CC[C@H](N(C)C)CC2)O3)c(=O)[nH]1 ... 722 nM
4) CSc1cc(C)[nH]c(=O)c1CNC(=O)c1cc(Cl)c2c(c1C)O[C@@H]([C@H]1CC[C@@H](N3CCN(C)CC3)CC1)CO2 ... 7.4 nM
5) COCCN(C)[C@H]1CC[C@H]([C@H]2COc3c(Cl)cc(C(=O)NCc4c(OC)cc(C)[nH]c4=O)c(C)c3O2)CC1 ... 69.3 nM

Quick one: IC50 for "[2H]C1(OC)CN([C@H]2CC[C@@H]([C@H]3COc4c(Cl)cc(C(=O)NCc5c(SC)cc(C)[nH]c5=O)c(C)c4O3)CC2)C1" ?
2.3 nM

###

# Test system: Karpas-422 cells
# assay-procedure: Anti-proliferation by Cell Titer-Glo method (Test Example 3)
# Assay type: cell-based
# recorded-conditions: Homo sapiens; Karpas-422 cells, Cell-Titer Glo on the eleventh day; read-out: Test Example 3 Karpas-422 cell anti-proliferation IC50
quantity: IC50 (nM)
Numbers only here, please. The scale is nM.

1) Cc1cc(C)c(CNC(=O)c2cc(Cl)c3c(c2C)OC(C2CCC(N(C)C)CC2)CO3)c(=O)[nH]1 (stereo not shown) ... 42.4
2) COc1cc(C)[nH]c(=O)c1CNC(=O)c1cc(Cl)c2c(c1C)O[C@@H]([C@H]1CC[C@@H](N3CC[C@@H](OC)C3)CC1)CO2 ... 35.8

Quick one: IC50 for Cc1cc(C)c(CNC(=O)c2cc(Cl)c3c(c2C)OC(C2CCC(N4CCCC4)CC2)CO3)c(=O)[nH]1 (stereo not shown) ?
341

Quick one: IC50 for "COC1CN([C@H]2CC[C@@H]([C@H]3COc4c(Cl)cc(C(=O)NCc5c(SC)cc(C)[nH]c5=O)c(C)c4O3)CC2)C1" ?
1.8

Quick one: IC50 for "[2H]C([2H])([2H])OC1CN([C@H]2CC[C@@H]([C@H]3COc4c(Cl)cc(C(=O)NCc5c(SC)cc(C)[nH]c5=O)c(C)c4O3)CC2)C1" ?
1.6

###

# target-under-test: EZH1/SUZ/EED (Homo sapiens, UniProt O75530+Q15022+Q92800)
# assay-procedure: Inhibitory effect on EZH1 by the MTase-Glo method (Test Example 1)
# recorded-conditions: EZH1/SUZ/EED 25 nM, H3 peptide 10 μM, SAM 3 μM, 30° C. 3 h, read-out: Test Example 1 WT EZH1 IC50
quantity: log10(IC50) (log10 of the value in nM)
# values: log10(IC50), units nM

Worked cases, log10(IC50) given:
1) CSc1cc(C)[nH]c(=O)c1CNC(=O)c1cc(Cl)c2c(c1C)O[C@@H]([C@H]1CC[C@@H](NC3(CF)COC3)CC1)CO2 ... 0.99
2) COc1cc(C)[nH]c(=O)c1CNC(=O)c1cc(Cl)c2c(c1C)O[C@@H]([C@H]1CC[C@H](N3CC4(CC4)C3)CC1)CO2 ... 1.70
3) Cc1cc(C)c(CNC(=O)c2cc(Cl)c3c(c2Cl)O[C@H]([C@H]2CC[C@@H](N(C)C)CC2)CO3)c(=O)[nH]1 ... 3.88
4) CSc1cc(C)[nH]c(=O)c1CNC(=O)c1cc(Cl)c2c(c1C)O[C@@H]([C@H]1CC[C@H](N3CC4(COC4)C3)CC1)CO2 ... 0.76

Quick one: log10(IC50) for Cc1cc(C)c(CNC(=O)c2cc(Cl)c3c(c2C)OC(C2CCC(N4CCCC4)CC2)CO3)c(=O)[nH]1 (stereo not drawn) ?
2.57

###

# target-under-test: EZH1/SUZ/EED (Homo sapiens, UniProt O75530+Q15022+Q92800)
# assay-procedure: Inhibitory effect on EZH1 by the MTase-Glo method (Test Example 1)
# recorded-conditions: EZH1/SUZ/EED 25 nM, H3 peptide 10 μM, SAM 3 μM, 30° C. 3 h, read-out: Test Example 1 WT EZH1 IC50
pIC50: −log10 of the molar value.
Label yes (1) when pIC50 is at or above 7; otherwise label no (0).

1. Cc1cc(C)c(CNC(=O)c2cc(Cl)c3c(c2C)CC(C)(C2CCC(N(C)C)CC2)O3)c(=O)[nH]1 (stereo not drawn) ... no (0)

Tell me whether pIC50 is at least 7 here: COc1cc(C)[nH]c(=O)c1CNC(=O)c1cc(Cl)c2c(c1C)O[C@@H]([C@H]1CC[C@@H](N3CC4COCC4C3)CC1)CO2 (stereo partly drawn)
no (0)

Tell me whether pIC50 is at least 7 here: [2H]C([2H])([2H])Sc1cc(C)[nH]c(=O)c1CNC(=O)c1cc(Cl)c2c(c1C)O[C@@H](C1CCC(N3CC(OC)C3)CC1)CO2 (stereo partly drawn) [Compound 178]
yes (1)

Tell me whether pIC50 is at least 7 here: Cc1cc(C)c(CNC(=O)c2cc(Cl)c3c(c2C)OC(C2CCC(N4CC(F)(F)C4)CC2)CO3)c(=O)[nH]1 (single isomer, unassigned) [Compound 57]
no (0)

Tell me whether pIC50 is at least 7 here: "CO[C@H]1CCN([C@H]2CC[C@@H]([C@H]3COc4c(Cl)cc(C(=O)NCc5c(SC)cc(C)[nH]c5=O)c(C)c4O3)CC2)C1"
yes (1)

###

# target-under-test: EZH2/SUZ/EED (Homo sapiens, UniProt O75530+Q15022+Q15910)
# Construct: purchased BPS 51003
# assay-procedure: Inhibitory effect on EZH2 by the MTase-Glo method (Test Example 1)
# Assay type: biochemical
# recorded-conditions: EZH2/SUZ/EED 6.25 nM, H3 peptide 10 μM, SAM 3 μM, 30° C. 3 h, read-out: Test Example 1 WT EZH2 IC50
Below: a set of entries, each annotated with reported IC50.
Numbers only here, please. The scale is nM.

1) Cc1cc(C)c(CNC(=O)c2cc(Cl)c3c(c2C)O[C@@H](C2CCC(N(C)C)CC2)CO3)c(=O)[nH]1 (stereo partly drawn) [Compound 53] ... 3

Quick one: IC50 for COCCOC1CN([C@H]2CC[C@H]([C@H]3COc4c(Cl)cc(C(=O)NCc5c(OC)cc(C)[nH]c5=O)c(C)c4O3)CC2)C1 [Compound 102] ?
2.6

Quick one: IC50 for COc1cc(C)[nH]c(=O)c1CNC(=O)c1cc(Cl)c2c(c1C)OC(C1CCC(N(C)C)CC1)CO2 (stereo not drawn) [Compound 5] ?
2.3

Quick one: IC50 for COc1cc(C)[nH]c(=O)c1CNC(=O)c1cc(Cl)c2c(c1C)O[C@@H]([C@H]1CC[C@@H](N3CC(OC)C3)CC1)CO2 [Compound 97] ?
3.25

Quick one: IC50 for Cc1cc(C)c(CNC(=O)c2cc(Cl)c3c(c2C)OC(C2CCC(N4CC(OC5CC5)C4)CC2)CO3)c(=O)[nH]1 (single isomer, unassigned) [Compound 77] ?
27.3
